The origin of these recorded values is PubChem BioAssay (NCI).

- Test system: OVCAR-8 ovarian
- assay_details: NCI tumour cell line growth inhibition, 48 h
value_kind: TGI

Incoming: So what's the measured TGI for this one? Cc1cc(N=Nc2ccc(N=Nc3c(O)c(S(=O)(=O)O)cc4cc(S(=O)(=O)O)ccc34)cc2C)ccc1N=Nc1ccc2cc(S(=O)(=O)O)cc(S(=O)(=O)O)c2c1
Outgoing: > 31.6 µM

Incoming: Thanks! And Cc1cc2c(c(N)c1C)C(=O)c1ccccc1C2=O ?
Outgoing: > 100 µM

---

- Test system: SNB-19 CNS
- assay_details: NCI tumour cell line growth inhibition, 48 h
TGI: recorded values

Recorded results for 4 compounds are shown here.
CCN(CC)CCOc1ccc(C(=C2CCCCC2)c2ccc(OCCN(CC)CC)cc2)cc1	4.03 µM
CNC1C(OC2C(OC3C(O)C(O)C(O)C(O)C3O)OC(C)C2(O)CO)OC(CO)C(O)C1O (stereo not given) (tested in a mixture with another compound)	> 100 µM
[N-]=[N+]=NC1=C(c2ccccc2)C(=O)c2cccc3cccc1c23	> 100 µM
Cc1ccc(S(=O)(=O)n2cc(-c3nnnn3-c3ccc(Cl)cc3)c(=O)c3ccccc32)cc1	> 100 µM

Proceed to the following item.
Incoming: So what's the measured TGI for this one? CC1=C2C(O)C(C(C)C(=O)NC(C)C)CCC2(C)C=CC1=O (stereo not given)
Outgoing: > 100 µM

---

- Tested on: SK-MEL-28 melanoma
- assay_details: NCI tumour cell line growth inhibition, 48 h
TGI: recorded values

Recorded results for 5 compounds are shown here.
CCN(CC(COc1ccc2c(c1)[n+]([O-])nc(N)[n+]2[O-])OC(C)=O)C(C)=O (stereo not drawn)	> 100 µM
COc1ccc(-c2nnc(CCCCCCCCc3nnc(-c4ccc(OC)cc4)o3)o2)cc1	> 100 µM
Cc1cc(C#N)c(Nc2c(C)cccc2[N+](=O)[O-])s1	> 100 µM
Cc1ccc(C2=C(c3ccccc3)C(O)(c3ccc(C)cc3)C(c3ccccc3)=C2c2ccc(C)cc2)cc1	> 100 µM
COC(=O)NN1C(C)=C(C(=O)OC)C2(CCOC2=O)C1(C)O (stereo not drawn)	> 100 µM

Proceed to the following item.
Incoming: So what's the measured TGI for this one? O=CC1(C2(C=O)c3ccccc3-c3ccccc32)c2ccccc2-c2ccccc21
Outgoing: 3.38 µM

---

- Test system: 786-0 renal
- assay_details: NCI tumour cell line growth inhibition, 48 h
TGI: recorded values
Give a bare numeral; the unit µM is implied.

Cc1cc2c(cc1C)[n+](=O)c(C(=O)/C=C/c1ccccc1Cl)c(C)n2[O-]	30.3

Proceed to the following item.
Incoming: So what's the measured TGI for this one? CCSc1nc2n(c(=S)n1)CCN2C
Outgoing: 52

---

- Tested on: NCI-H460 lung
- assay_details: NCI tumour cell line growth inhibition, 48 h
value_kind: TGI

Recorded results for 2 compounds are shown here.
CC1(C)CC[C@]2(C(=O)O)CC[C@]3(C)C(=CC[C@@H]4[C@@]5(C)CC[C@H](OC6OC(CO)C(O)C(O)C6OC6OC(CO)C(O)C(O)C6O)C(C)(C)[C@@H]5CC[C@]43C)[C@@H]2C1 (stereo not given in full)	41.5 µM
Nc1ccc(N)c2c1C(=O)c1c(N)ccc(N)c1C2=O	> 100 µM

Incoming: Return TGI measured with NCI-H460 lung given this compound: O=C(CCl)Nc1ccc2c(c1)C(=O)c1ccc(NC(=O)CCl)cc1C2=O
Outgoing: 1.53 µM

Incoming: Thanks! And Cc1ccc(C2=C(c3ccccc3)C(O)(c3ccc(C)cc3)C(c3ccccc3)=C2c2ccc(C)cc2)cc1 ?
Outgoing: > 100 µM

Incoming: Thanks! And COC(=O)NN1C(=O)C(=P(c2ccccc2)(c2ccccc2)c2ccccc2)C(C(=O)OC)=C1C ?
Outgoing: > 100 µM

Incoming: Thanks! And CCN(CC)C1=Nc2ccccc2-n2c(C)cnc2C1 ?
Outgoing: > 100 µM

Incoming: Thanks! And CC1(C)C2CCC1(CC(=O)O)C(Cl)C2 (stereo not given) ?
Outgoing: > 100 µM

Incoming: Thanks! And CC1(C)OC(=O)C(=C2CC(c3ccccc3)c3ccccc32)C(=O)O1 (stereo not given) ?
Outgoing: > 100 µM

---

- Tested on: A549 NSCLC
- assay_details: NCI tumour cell line growth inhibition, 48 h
value_kind: TGI

COc1ccc(-c2nnc(CCCCCCCCc3nnc(-c4ccc(OC)cc4)o3)o2)cc1	> 100 µM
Cc1ccc(C(=O)NC(C)(C)C)cc1N=NN(C)C	> 100 µM
CC(C)(C)NC1C2CCC(C)(C1O)C2(C)C (stereo not drawn)	> 100 µM
CN1CCCCC1CCN1c2ccccc2Sc2ccc(S(C)=O)cc21 (stereo not drawn)	> 100 µM
CC1(C)CC[C@]2(C(=O)O)CC[C@]3(C)C(=CC[C@@H]4[C@@]5(C)CC[C@H](OC6OC(CO)C(O)C(O)C6OC6OC(CO)C(O)C(O)C6O)C(C)(C)[C@@H]5CC[C@]43C)[C@@H]2C1 (stereo partly drawn)	33.7 µM

Incoming: Return TGI measured with A549 NSCLC given this compound: COc1ccc(-c2nocc2-c2cc(OC)c(OC)c(OC)c2)cc1
Outgoing: > 100 µM

Incoming: Thanks! And CCOC(=O)C1(Cc2ccccc2)Cc2ccccc2C1=O (stereo not drawn) ?
Outgoing: > 100 µM

Incoming: Thanks! And CC1CCC23COC(=O)C2C(O)CCC3C1(C)CC(O)c1ccoc1 (stereo not drawn) ?
Outgoing: > 100 µM

Incoming: Thanks! And COc1cc(NC(N)=NCCC(C)(C)c2ccc(C(F)(F)F)cc2)ncc1C#N ?
Outgoing: 3.06 µM

Incoming: Thanks! And [N-]=[N+]=NC1=C(c2ccccc2)C(=O)c2cccc3cccc1c23 ?
Outgoing: > 100 µM

Incoming: Thanks! And COc1ccc(Nc2ncccc2C(=O)NCc2cn(Cc3cccc(Oc4ccccc4)c3)nn2)cc1 ?
Outgoing: > 100 µM

Incoming: Thanks! And CCOC(=O)/C=C/c1ccccn1 ?
Outgoing: > 100 µM

Incoming: Thanks! And CCN1CCN(C(=O)[C@]23CCC(C)(C)C[C@@H]2C2=CC[C@@H]4[C@@]5(C)C/C(=C/c6cccnc6)C(=O)C(C)(C)[C@@H]5CC[C@@]4(C)[C@]2(C)CC3)CC1 ?
Outgoing: 13.4 µM

Incoming: Thanks! And COc1cc([C@@H]2c3cc4c(c(O)c3C[C@H]3COC(=O)[C@@H]32)OCO4)cc(OC)c1O ?
Outgoing: > 200 µM

Incoming: Thanks! And Cc1cc2c(c(N)c1C)C(=O)c1ccccc1C2=O ?
Outgoing: > 100 µM

Incoming: Thanks! And C[C@@]1(N2C(=O)OC[C@@H]2c2ccccc2)C(=O)N([C@H](CC(=O)N2CCC(N3CCCCC3)CC2)C(=O)NCc2cccc(C(F)(F)F)c2)[C@@H]1/C=C/c1ccccc1 ?
Outgoing: 4.23 µM

Incoming: Thanks! And COc1ccc(CC2C3=C(CCCC3)CCN2C)cc1 (stereo not drawn) ?
Outgoing: > 100 µM

Incoming: Thanks! And COc1cccc(-n2c(N)c(-c3nc4cc(C(F)(F)F)ccc4s3)c3ccc([N+](=O)[O-])cc3c2=O)c1 ?
Outgoing: > 100 µM

Incoming: Thanks! And O=C1C(Cl)=C(Nc2cccc(O)c2)C(=O)N1c1cccc(Cl)c1Cl ?
Outgoing: 45.9 µM

Incoming: Thanks! And COc1cc2c(cc1OC)C(Cc1c3ccccc3cc3ccccc13)N(C)CC2 (stereo not drawn) ?
Outgoing: > 100 µM

Incoming: Thanks! And C/C(=N/N)c1ccc2[nH]c3c(C)cc([N+](=O)[O-])c(C)c3c2c1 ?
Outgoing: 40.6 µM

Incoming: Thanks! And CC/C=C\C/C=C\C[C@H]1C/C=C2/C(=O)C=C[C@H]2C/C=C\CCC(=O)O1 ?
Outgoing: 12.2 µM

Incoming: Thanks! And COc1ccc(Cn2c(Br)c3c(c2-c2cc(OC)c(OC)c(OC)c2)CCc2sc(NC(C)=O)nc2-3)cc1 ?
Outgoing: > 100 µM

Incoming: Thanks! And CNC1C(OC2C(OC3C(O)C(O)C(O)C(O)C3O)OC(C)C2(O)CO)OC(CO)C(O)C1O (stereo not drawn) (tested in a mixture with another compound) ?
Outgoing: > 100 µM

Incoming: Thanks! And COC(Cc1ccccc1)NC(C)=O (stereo not drawn) ?
Outgoing: > 100 µM

Incoming: Thanks! And O=C(CCl)Nc1ccc2c(c1)C(=O)c1ccc(NC(=O)CCl)cc1C2=O ?
Outgoing: > 100 µM

Incoming: Thanks! And Cc1cc2[nH]c3c(C#N)c(-c4ccccc4)c(CN4CCOCC4)c(=O)n3c2cc1C ?
Outgoing: > 100 µM

Incoming: Thanks! And Cc1n[nH]c(=O)n1N1C(=O)c2ccccc2C1=O ?
Outgoing: > 100 µM

Incoming: Thanks! And CC1=C(c2cc(C(=O)Nc3nccs3)nc(NC#N)n2)Sc2ccccc2N1 ?
Outgoing: > 100 µM

Incoming: Thanks! And S=C1SC(c2ccc(Cl)cc2)(c2ccc(Cl)cc2)c2ccccc21 ?
Outgoing: > 100 µM

Incoming: Thanks! And Nc1c(C(=O)Nc2ccccc2)sc2nc3c(cc12)CCCC3 ?
Outgoing: 39.4 µM

Incoming: Thanks! And CCOC(=O)NC(=O)c1cn(CCSCCOC(=O)NCCCCCCNC(=O)OCCSCCn2cc(C(=O)NC(=O)OCC)c(=O)[nH]c2=O)c(=O)[nH]c1=O ?
Outgoing: > 100 µM

Incoming: Thanks! And CN1OC2OC(=O)OC2[C@H]1[C@H]1O[C@H](c2ccccc2)OC1(C)c1cc(OC(=O)c2ccccc2)ccc1OC(=O)c1ccccc1 (stereo partly drawn) ?
Outgoing: > 50 µM
